Data credit: patent US20110190196A1

Molecular target: ATP-binding cassette transporter A1 (ABCA1) (UniProt P41233 1-2261, limits assumed); also: test concentration or dose not given here
Sequence (P41233 whole entry): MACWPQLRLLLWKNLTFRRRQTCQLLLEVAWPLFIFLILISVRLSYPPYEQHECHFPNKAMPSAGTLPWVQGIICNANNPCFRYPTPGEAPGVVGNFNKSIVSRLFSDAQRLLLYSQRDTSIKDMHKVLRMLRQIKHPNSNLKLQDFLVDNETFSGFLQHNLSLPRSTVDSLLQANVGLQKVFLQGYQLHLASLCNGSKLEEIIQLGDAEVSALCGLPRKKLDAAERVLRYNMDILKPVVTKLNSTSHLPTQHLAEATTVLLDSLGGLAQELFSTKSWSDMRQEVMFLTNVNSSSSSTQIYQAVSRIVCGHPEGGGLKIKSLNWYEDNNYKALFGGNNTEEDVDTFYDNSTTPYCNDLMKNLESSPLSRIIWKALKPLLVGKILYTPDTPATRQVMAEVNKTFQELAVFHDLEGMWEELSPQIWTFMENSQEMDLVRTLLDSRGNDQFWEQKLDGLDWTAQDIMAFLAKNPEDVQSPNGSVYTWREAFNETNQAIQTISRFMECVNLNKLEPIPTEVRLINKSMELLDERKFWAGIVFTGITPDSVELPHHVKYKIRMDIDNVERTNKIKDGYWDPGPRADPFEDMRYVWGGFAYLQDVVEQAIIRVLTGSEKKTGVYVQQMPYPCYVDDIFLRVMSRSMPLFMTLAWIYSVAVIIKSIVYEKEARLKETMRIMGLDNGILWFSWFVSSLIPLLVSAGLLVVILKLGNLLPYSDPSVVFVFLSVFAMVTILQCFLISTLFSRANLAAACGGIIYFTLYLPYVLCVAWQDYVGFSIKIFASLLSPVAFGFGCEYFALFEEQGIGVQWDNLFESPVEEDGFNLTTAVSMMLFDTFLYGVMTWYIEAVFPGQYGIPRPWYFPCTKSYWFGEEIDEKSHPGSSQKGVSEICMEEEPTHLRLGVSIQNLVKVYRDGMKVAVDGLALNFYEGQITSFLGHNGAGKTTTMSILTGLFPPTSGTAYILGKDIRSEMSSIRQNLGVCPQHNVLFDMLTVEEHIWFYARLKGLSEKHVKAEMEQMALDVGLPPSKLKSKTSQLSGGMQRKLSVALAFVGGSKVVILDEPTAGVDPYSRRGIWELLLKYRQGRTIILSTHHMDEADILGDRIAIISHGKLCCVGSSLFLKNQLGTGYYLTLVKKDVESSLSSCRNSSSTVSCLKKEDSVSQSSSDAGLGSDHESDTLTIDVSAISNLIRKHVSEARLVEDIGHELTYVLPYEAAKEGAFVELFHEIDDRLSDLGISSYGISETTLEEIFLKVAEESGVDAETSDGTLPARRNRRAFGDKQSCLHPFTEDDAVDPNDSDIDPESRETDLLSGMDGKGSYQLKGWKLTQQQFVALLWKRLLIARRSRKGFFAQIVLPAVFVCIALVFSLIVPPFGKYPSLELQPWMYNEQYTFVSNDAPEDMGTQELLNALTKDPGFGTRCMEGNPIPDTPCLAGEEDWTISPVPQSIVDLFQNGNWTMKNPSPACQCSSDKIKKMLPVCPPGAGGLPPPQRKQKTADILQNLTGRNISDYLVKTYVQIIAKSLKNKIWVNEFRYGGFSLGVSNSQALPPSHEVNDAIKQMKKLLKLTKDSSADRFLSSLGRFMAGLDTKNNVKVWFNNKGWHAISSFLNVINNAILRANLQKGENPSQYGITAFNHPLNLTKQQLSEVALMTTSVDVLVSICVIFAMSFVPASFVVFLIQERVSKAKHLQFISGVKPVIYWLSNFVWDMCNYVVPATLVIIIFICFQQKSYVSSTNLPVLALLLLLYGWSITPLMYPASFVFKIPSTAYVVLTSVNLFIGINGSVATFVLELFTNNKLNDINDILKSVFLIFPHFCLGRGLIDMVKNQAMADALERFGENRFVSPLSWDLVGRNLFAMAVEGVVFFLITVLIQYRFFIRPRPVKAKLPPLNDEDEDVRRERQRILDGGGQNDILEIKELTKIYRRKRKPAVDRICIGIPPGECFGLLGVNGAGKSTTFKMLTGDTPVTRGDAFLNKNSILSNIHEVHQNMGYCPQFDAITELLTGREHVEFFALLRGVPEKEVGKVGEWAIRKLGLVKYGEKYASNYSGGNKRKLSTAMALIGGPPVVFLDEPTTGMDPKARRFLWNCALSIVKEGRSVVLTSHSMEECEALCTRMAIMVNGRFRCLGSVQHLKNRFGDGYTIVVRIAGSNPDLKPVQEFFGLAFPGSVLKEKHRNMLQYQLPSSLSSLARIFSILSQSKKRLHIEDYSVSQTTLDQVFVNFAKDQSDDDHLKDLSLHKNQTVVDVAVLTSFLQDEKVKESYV
Test: cell-based or functional assay
MEASURED PROPERTY: % cholesterol efflux/8 hours, -cAMP (%)

Solved entries (count: 6):
1) EVREKLEAWFELFREFAERFLS [N965-3] : 1.45
2) EVREKLEAWFELFREFLERF [N965-7] : 1.5
3) EVREKLEAWFELFREFLERFL [N965-6] : 3.15
4) EVREKLEAWFEAFREFAERFKS [N965-1] : 1.75
5) EVREKLEAWFELFREFAERFKS [N965-2] : 1.28
6) ELREKLEAWFELFREFLERF [SEQ ID NO:2 peptide] : 2.29

(P) EVREKLEAWFELFREFLERFLS [N965-5]
(Q) ELREKLEAWRELFEEFFARFLS [N965-9]
(R) EVREKLEAWFELFREFLERFKS [N965-4]
Exam item: Please rank these binders by % cholesterol efflux/8 hours, -cAMP in descending order. Show the ranking through the labels, in the order asked for.
Marked response: P, R, Q
(P: 2.91%, R: 1.52%, Q: 1.06%)
